The compounds listed here are annotated with their MIC.
- Tested on: Haemophilus influenzae
- assay_protocol: The compound was tested for antibacterial activity against resistant Haemophilus influenzae 76.
- Type: functional
Report only the number, with the unit µg/mL understood.

These solved cases illustrate the format of a correct answer.
CC1=C(C(=O)O)N2C(=O)C(NC(=O)[C@H](N)c3csc4ccccc34)C2SC1 (some centres undefined) = 1
CC1=C(C(=O)O)N2C(=O)C(NC(=O)[C@@H](N)c3csc4ccccc34)C2SC1 (some centres undefined) = 16
CC1=C(C(=O)O)N2C(=O)[C@@H](NC(=O)[C@H](N)c3ccccc3)[C@H]2SC1 [CEPHALEXIN ANHYDROUS] = 8

Query :: Input CC1=C(C(=O)O)N2C(=O)C(NC(=O)C(N)c3csc4ccccc34)C2SC1 (centres undefined) , output reported MIC.
Result :: 2
